assay: The drug is tested on Enterococcus faecalis strain: V583 for biotransformation. The drug concentrations were measured before and after a 12-h incubation by liquid-chromatography-coupled mass spectrometry (LC–MS); settings: 2 µM
measured.parameter: Bacterial Biotransformation

CSc1ccc2c(c1)C(N1CCN(C)CC1)Cc1ccccc1S2.O=C(O)/C=C\C(=O)O (configuration not stated)	Compound NOT metabolized
CCC(C)n1ncn(-c2ccc(N3CCN(c4ccc(OCC5COC(Cn6cncn6)(c6ccc(Cl)cc6Cl)O5)cc4)CC3)cc2)c1=O (configuration not stated) [ITRACONAZOLE]	Compound NOT metabolized
N#Cc1ccc(C(c2ccc(C#N)cc2)n2cncn2)cc1 [LETROZOLE]	Compound NOT metabolized
O=C(NCc1ccccc1)OCCO [BURAMATE]	Compound NOT metabolized
CCN(CC)CCNC(=O)c1cc(S(C)(=O)=O)ccc1OC [TIAPRIDE]	Compound NOT metabolized

Now for another entry.
// CCOC(=O)C1=C(C)NC(C)=C(C(=O)OC)C1c1cccc([N+](=O)[O-])c1 (configuration not stated) [NITRENDIPINE] : Bacterial Biotransformation value = Compound metabolized

----------
assay: The drug is tested on Eggerthella lenta strain: ATCC25559 for biotransformation. The drug concentrations were measured before and after a 12-h incubation by liquid-chromatography-coupled mass spectrometry (LC–MS); conditions: 2 µM
measured.parameter: Bacterial Biotransformation

COc1ccc2[nH]c([S+]([O-])Cc3ncc(C)c(OC)c3C)nc2n1 (centres undefined)	Compound metabolized
CN(C)CC(c1ccc(O)cc1)C1(O)CCCCC1.O=C(O)CCC(=O)O (centres undefined) [DESVENLAFAXINE SUCCINATE]	Compound NOT metabolized
N#Cc1ccc2c(c1)N(CCCN1CCC(O)CC1)c1ccccc1S2	Compound NOT metabolized
CCCCc1nc(Cl)c(CO)n1Cc1ccc(-c2ccccc2-c2nn[nH]n2)cc1	Compound NOT metabolized
CCOc1ccc2nc(S(N)(=O)=O)sc2c1 [ETHOXZOLAMIDE]	Compound metabolized
CC[C@H](C)C(=O)O[C@H]1C[C@@H](C)C=C2C=C[C@H](C)[C@H](CC[C@@H]3C[C@@H](O)CC(=O)O3)[C@H]21	Compound NOT metabolized
CC#CCn1c(N2CCC[C@@H](N)C2)nc2c1c(=O)n(Cc1nc(C)c3ccccc3n1)c(=O)n2C	Compound NOT metabolized
CC(=O)Nc1ccc(OC(C)=O)cc1 [DIACETAMATE]	Compound metabolized

// COc1cc2nc(N3CCN(C(=O)C4CCCO4)CC3)nc(N)c2cc1OC (centres undefined) : Bacterial Biotransformation value = Compound NOT metabolized

----------
assay: The drug is tested on Bacteroides cellulosilyticus strain: DSM14838 for biotransformation. The drug concentrations were measured before and after a 12-h incubation by liquid-chromatography-coupled mass spectrometry (LC–MS); conditions: 2 µM
measured.parameter: Bacterial Biotransformation

These recorded examples may help you get a feel for the data.
CC1=C(CC(=O)O)c2cc(F)ccc2/C1=C\c1ccc([S+](C)[O-])cc1 (centres undefined)	Compound NOT metabolized
COc1ccnc(C[S+]([O-])c2nc3ccc(OC(F)F)cc3[nH]2)c1OC (centres undefined)	Compound metabolized
CNC(=C[N+](=O)[O-])NCCSCc1ccc(CN(C)C)o1	Compound metabolized
CCOc1ccc(NC(C)=O)cc1	Compound NOT metabolized
CCN(CC)CCCC(C)Nc1c2ccc(Cl)cc2nc2ccc(OC)cc12 (centres undefined)	Compound NOT metabolized
N[C@@H](Cc1ccc(N(CCCl)CCCl)cc1)C(=O)O	Compound metabolized

// COc1ccccc1OCCNCC(O)COc1cccc2[nH]c3ccccc3c12 (centres undefined) : Bacterial Biotransformation value = Compound metabolized

// NS(=O)(=O)c1cc2c(cc1Cl)N=C(CSCc1ccccc1)NS2(=O)=O [BENZTHIAZIDE] : Bacterial Biotransformation value = Compound NOT metabolized

// CCCc1nn(C)c2c(=O)[nH]c(-c3cc(S(=O)(=O)N4CCN(C)CC4)ccc3OCC)nc12.O=C(O)CC(O)(CC(=O)O)C(=O)O [SILDENAFIL CITRATE] : Bacterial Biotransformation value = Compound NOT metabolized

----------
experiment: The drug is tested on Enterobacter cancerogenus strain: ATCC35316 for biotransformation. The drug concentrations were measured before and after a 12-h incubation by liquid-chromatography-coupled mass spectrometry (LC–MS); conditions: 2 µM
measured.parameter: Bacterial Biotransformation

These recorded examples may help you get a feel for the data.
N[C@@H](Cc1ccc(N(CCCl)CCCl)cc1)C(=O)O	Compound metabolized
O=C(CCCN1CCC(O)(c2ccc(Cl)cc2)CC1)c1ccc(F)cc1 [HALOPERIDOL]	Compound NOT metabolized
CN1C[C@H](C(=O)N[C@]2(C)O[C@@]3(O)[C@@H]4CCCN4C(=O)[C@H](Cc4ccccc4)N3C2=O)C=C2c3cccc4[nH]cc(c34)C[C@H]21.CN1C[C@H](C(=O)N[C@]2(C)O[C@@]3(O)[C@@H]4CCCN4C(=O)[C@H](Cc4ccccc4)N3C2=O)C=C2c3cccc4[nH]cc(c34)C[C@H]21.O=C(O)C(O)C(O)C(=O)O [ERGOTAMINE TARTRATE]	Compound metabolized
CN/C(=N/CCSCc1nc[nH]c1C)NC#N [CIMETIDINE]	Compound NOT metabolized
CCN(CC)CC#CCOC(=O)C(O)(c1ccccc1)C1CCCCC1.Cl (centres undefined) [OXYBUTYNIN CHLORIDE]	Compound NOT metabolized

// CS(=O)(=O)O.O.O.O.O=C1Cc2cc(CCN3CCN(c4nsc5ccccc45)CC3)c(Cl)cc2N1 [ZIPRASIDONE MESYLATE] : Bacterial Biotransformation value = Compound NOT metabolized

// CN(C(=O)CN(CCO)CC(=O)N(C)C(C)(C)Cc1ccccc1)C(C)(C)Cc1ccccc1 [OXETHAZAINE] : Bacterial Biotransformation value = Compound NOT metabolized

// COc1ccc2c(c1OC)C(=O)O[C@@H]2[C@H]1c2c(cc3c(c2OC)OCO3)CCN1C [NOSCAPINE] : Bacterial Biotransformation value = Compound metabolized

----------
assay: The drug is tested on Clostridium ramosum strain: DSM1402 for biotransformation. The drug concentrations were measured before and after a 12-h incubation by liquid-chromatography-coupled mass spectrometry (LC–MS); settings: thomasclavelia ramosa, 2 µM
measured.parameter: Bacterial Biotransformation

These recorded examples may help you get a feel for the data.
COC1=C(OC)C(=O)C(CCCCCCCCCCO)=C(C)C1=O	Compound NOT metabolized
CC1Cc2ccccc2N1NC(=O)c1ccc(Cl)c(S(N)(=O)=O)c1 (stereo not drawn) [INDAPAMIDE]	Compound NOT metabolized
O=C1N=C([O-])NC1(c1ccccc1)c1ccccc1.[Na+] [PHENYTOIN SODIUM]	Compound NOT metabolized
CCN(CC)C(=O)/C(C#N)=C/c1cc(O)c(O)c([N+](=O)[O-])c1	Compound metabolized
Fc1ccc([C@@H]2CCNC[C@H]2COc2ccc3c(c2)OCO3)cc1	Compound NOT metabolized

// CCC(=O)NCC[C@@H]1CCc2ccc3c(c21)CCO3 : Bacterial Biotransformation value = Compound NOT metabolized

// CC(=O)Nc1ccc(OC(C)=O)cc1 [DIACETAMATE] : Bacterial Biotransformation value = Compound metabolized

// CN(C)CCC=C1c2ccccc2C=Cc2ccccc21 : Bacterial Biotransformation value = Compound NOT metabolized

// CCCc1nc2c(C)cc(-c3nc4ccccc4n3C)cc2n1Cc1ccc(-c2ccccc2C(=O)O)cc1 : Bacterial Biotransformation value = Compound NOT metabolized

// Br.COc1ccc2c(c1)[C@]13CCCC[C@@H]1[C@H](C2)N(C)CC3.O [DEXTROMETHORPHAN HYDROBROMIDE] : Bacterial Biotransformation value = Compound NOT metabolized

// CC(CN(C)C)CN1c2ccccc2CCc2ccccc21.O=C(O)/C=C\C(=O)O (stereo not drawn) [TRIMIPRAMINE MALEATE] : Bacterial Biotransformation value = Compound NOT metabolized

// CN(C/C=C/C#CC(C)(C)C)Cc1cccc2ccccc12 : Bacterial Biotransformation value = Compound NOT metabolized

// COc1ccc2c(c1OC)C(=O)O[C@@H]2[C@H]1c2c(cc3c(c2OC)OCO3)CCN1C : Bacterial Biotransformation value = Compound NOT metabolized

// CN1CCN(CC/C=C2/c3ccccc3Sc3ccc(S(=O)(=O)N(C)C)cc32)CC1 : Bacterial Biotransformation value = Compound metabolized

// COc1ccnc(C[S+]([O-])c2nc3ccc(OC(F)F)cc3[nH]2)c1OC (stereo not drawn) : Bacterial Biotransformation value = Compound metabolized

// CC(=O)O[C@]1(C(C)=O)CC[C@H]2[C@@H]3C=C(Cl)C4=CC(=O)[C@@H]5C[C@@H]5[C@]4(C)[C@H]3CC[C@@]21C [CYPROTERONE ACETATE] : Bacterial Biotransformation value = Compound NOT metabolized

// CCOC(=O)[C@H](CCc1ccccc1)N[C@@H](C)C(=O)N1CCC[C@H]1C(=O)O.O=C(O)/C=C\C(=O)O [ENALAPRIL MALEATE] : Bacterial Biotransformation value = Compound NOT metabolized

// O=c1[nH]c2ccccc2n1CCCN1CCC(n2c(=O)[nH]c3cc(Cl)ccc32)CC1 : Bacterial Biotransformation value = Compound NOT metabolized

// CN1CCC[C@@H]1CCO[C@](C)(c1ccccc1)c1ccc(Cl)cc1.O=C(O)/C=C/C(=O)O [CLEMASTINE FUMARATE] : Bacterial Biotransformation value = Compound NOT metabolized

// CC1=C(CC(=O)O)c2cc(F)ccc2/C1=C\c1ccc([S+](C)[O-])cc1 (stereo not drawn) : Bacterial Biotransformation value = Compound NOT metabolized
